The values you see were collected from PubChem BioAssay.

# assay explanation: small-molecule microarray binders of probe aEGFR, primary screen, biochemical, biotinylated probe, 635/667 nm fluorescence (AID 1097);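 further: probe is a biotinylated anti-EGFR antibody binding compounds printed on slides; score combines fluorescence near 667 nm and signal to noise of each spot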
# test parameters: higher = more signal
Give measured composite z-score for each item. Keep answers brief.
The answer should be a number; do not append a unit.

Problem: # composite z-score lookup, item CN1C(=O)C2C=CC(C(O)c3ccccc3)N(N(c3ccccc3)c3ccccc3)C2C1=O (stereo not drawn)
Result: -0.0668

Problem: Param item = CCOC(=O)C[C@H]1[C@H](OC(=O)c2ccc(C(=O)c3ccccc3)cc2)[C@@H](NC(=O)c2ccc3ccccc3n2)c2cc(OCCCO)ccc2N1C(=O)c1ccccc1 ; retrieve measured composite z-score.
Result: 0.0864

Problem: Query: composite z-score; subject: CC(C)(C)OC(=O)CC[C@]1(C(=O)N2CCOCC2)N=C(c2ccc(OCCCO)cc2)O[C@H]1c1ccccc1N=[N+]=[N-]
Result: 0.0552

Problem: Query: composite z-score; subject: COCCOC(=O)N1C(=O)[C@@]2(c3cc(C#CCC(C(=O)OC)C(=O)OC)ccc31)[C@H](C(=O)N1CCN(c3ncccn3)CC1)[C@H]1C(=O)O[C@H](c3ccccc3)[C@H](c3ccccc3)N1[C@@H]2c1ccccc1OCCO
Result: 0.0537

Problem: Reported composite z-score, compound C=CCC(OC(C)=O)[C@@H]1[C@@H](N(Cc2cc3ccccc3o2)C(=O)c2cccc3ccccc23)c2cc(OCCCO)ccc2N1C(=O)c1ccc(-c2ccccc2)cc1 (stereo partly drawn) : ____
Result: 0.0969

Problem: Please report the recorded composite z-score for COc1ccc([C@H]2OC[C@@H]3C[C@@H](Cc4ccccc4)C(=O)N32)cc1 .
Result: -0.0299

Problem: What value of composite z-score has been reported for the following compound? O=C1O[C@H](c2ccccc2)[C@H](c2ccccc2)N2[C@H]1[C@@H](C(=O)N1CCCCCCC1)[C@]1(C(=O)Nc3ccc(C#CCCO)cc31)[C@H]2c1ccccc1OCCO
Result: 1.34

Problem: // returns reported composite z-score for input O[C@@H](Cc1ccccc1)[C@H]1C2C=CCCC=C2CN1Cc1cccc(Cl)c1 (stereo partly drawn)
Result: -0.0039

Problem: Quick check: composite z-score of C=C(COC)/C(=C/C[C@@H](OC(C)=O)c1ccc(OCCO)cc1)c1cnc2ccccc2c1 ?
Result: -0.067

Problem: Requested read-out: composite z-score. Entry: C=C(C)[C@@H]1CC=C(C(O)C2C=CC3C(=O)N(c4ccccc4)C(=O)C3N2Nc2ccccc2)CC1 (stereo partly drawn)
Result: 0.34

Problem: Consider the compound C=CCOC(=O)[C@@H]1[C@H]2C(=O)O[C@H](c3ccccc3)[C@H](c3ccccc3)N2[C@H](c2ccc(OCCOC(=O)[C@@H]3C[C@@H]4C(=O)NCC(=O)N4[C@@H]3c3ccc(O)cc3)cc2)[C@@]12C(=O)Nc1ccc(I)cc12 and give its measured composite z-score.
Result: -0.154

Problem: For the compound O=C1C[C@@](C(=O)NCCN2CCOCC2)(c2ccc([N+](=O)[O-])cc2)[C@@H](c2ccc(CO)cc2)N1CC12CC3CC(CC(C3)C1)C2 , what composite z-score is on record?
Result: 0.0778

Problem: Using the record for COCCOC(=O)N1C(=O)[C@@]2(c3ccccc31)[C@H](c1ccccc1OCCO)N1[C@H](c3ccccc3)[C@H](c3ccccc3)OC(=O)[C@H]1[C@@H]2C(=O)N1CCN(c2ncccn2)CC1 , report its composite z-score.
Result: -0.12
